TESTED SYSTEM: T1, human IGSF11 (VSIG3) expressed on the surface of cells (human, UniProt Q5DX21 23-431)
T1 construct: one molecule for all cell lines; the cell line is named under assay; also called IGSF11-expressing cells; HEK-OE
T1 sequence: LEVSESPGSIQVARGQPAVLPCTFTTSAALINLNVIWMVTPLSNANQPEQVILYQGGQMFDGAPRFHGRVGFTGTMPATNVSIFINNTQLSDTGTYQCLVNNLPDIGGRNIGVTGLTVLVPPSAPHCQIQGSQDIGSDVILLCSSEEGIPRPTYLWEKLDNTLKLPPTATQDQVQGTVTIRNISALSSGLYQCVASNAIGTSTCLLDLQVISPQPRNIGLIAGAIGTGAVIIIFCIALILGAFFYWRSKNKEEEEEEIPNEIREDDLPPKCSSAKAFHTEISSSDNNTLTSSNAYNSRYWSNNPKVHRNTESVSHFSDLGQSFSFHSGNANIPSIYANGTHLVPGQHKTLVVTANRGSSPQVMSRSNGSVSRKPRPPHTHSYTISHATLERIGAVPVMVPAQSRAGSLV
ASSAY NOTES: FACS on DMS 273 cells treated with scrambled control siRNA (SC)
MEASUREMENT KIND: percentage binding (%)
The reply should contain only the number, in %.

QUERY: // percentage binding lookup, key: A-026 (human IgG1 format) (antibody, V domains shown, human IgG1 format) VH: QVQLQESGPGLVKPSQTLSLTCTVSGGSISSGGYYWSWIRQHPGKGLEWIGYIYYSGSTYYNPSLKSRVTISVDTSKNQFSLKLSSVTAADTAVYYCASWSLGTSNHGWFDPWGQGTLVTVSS VL: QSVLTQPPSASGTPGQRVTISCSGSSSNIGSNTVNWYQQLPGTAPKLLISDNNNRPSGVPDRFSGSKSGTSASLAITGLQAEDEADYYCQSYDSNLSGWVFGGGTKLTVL
RESULT: 64.4
